- experimentalProtocol: Thermodynamic aqueous solubility of compound in pH 7.4 PBS by UPLC-MS analysis
- Assay type: physicochemical
- conditions: PBS pH 7.4, pH 7.4; read-out: Therm_solubility
parameter: solubility thermodynamic (µM)

INSERT INTO measurements (compound, value) VALUES
  ('C/C=C/C[C@@H](C)[C@@H](OC(C)=O)[C@H]1C(=O)N[C@@H](CC)C(=O)N(C)CC(=O)N(C)[C@@H](CC(C)C)C(=O)N[C@@H](C(C)C)C(=O)N(C)[C@@H](CC(C)C)C(=O)N[C@@H](C)C(=O)N[C@H](C)C(=O)N(C)[C@@H](CC(C)C)C(=O)N(C)[C@@H](CC(C)C)C(=O)N(C)[C@@H](C(C)C)C(=O)N1C', 0.005),
  ('CC[C@@H]1NC(=O)[C@H](CC(C)C)N(C)C(=O)[C@H](CC)N(C)C(=O)[C@H](CC(C)C)N(C)C(=O)[C@H](CC(C)C)N(C)C(=O)[C@@H](C)NC(=O)[C@H](C)NC(=O)[C@H](CC(C)C)N(C)C(=O)[C@H](C(C)C)NC(=O)[C@H](CC(C)C)N(C)C(=O)CN(C)C1=O', 10),
  ('CC(C)C[C@@H]1NC(=O)[C@H](C(C)C)NC(=O)[C@H](Cc2ccc(O)cc2)N(C)C(=O)[C@H](Cc2ccccc2)NC(=O)CN(C)C(=O)[C@@H]2CCCN2C(=O)[C@@H](Cc2ccccc2)N(C)C1=O [Cordyheptapeptide C]', 2.7),
  ('CC[C@@H]1NC(=O)[C@H](CC(C)C)N(C)C(=O)[C@H](C(C)C)N(C)C(=O)[C@H](CC(C)C)N(C)C(=O)[C@H](CC(C)C)N(C)C(=O)[C@@H](C)NC(=O)[C@H](C)NC(=O)[C@H](CC(C)C)N(C)C(=O)[C@H](C(C)C)NC(=O)[C@H](CC(C)C)N(C)C(=O)CN(C)C1=O', 22);

* * *

Papp at 2 µM overview
- experimentalProtocol: Apparent permeability in low-efflux MDCK2 cells at 2 uM by lucifer yellow dye-based UPLC-MS analysis
- Type: ADME, cell-based, Canis lupus familiaris, MDCK-II
- conditions: dog, MDCK
parameter: Papp at 2 µM

INSERT INTO measurements (structuresmiles, value) VALUES
  ('C/C=C/C[C@@H](C)[C@@H](O)[C@H]1C(=O)N[C@@H]([C@@H](C)O)C(=O)N(C)CC(=O)N(C)[C@@H](CC(C)C)C(=O)N[C@@H](C(C)C)C(=O)N(C)[C@@H](CC(C)C)C(=O)N[C@@H](C)C(=O)N[C@H](C)C(=O)N(C)[C@@H](CC(C)C)C(=O)N(C)[C@@H](CC(C)C)C(=O)N(C)[C@@H](C(C)C)C(=O)N1C', '0.5 ×10⁻⁶ cm/s'),
  ('C/C=C/C[C@@H](C)[C@@H](O)[C@H]1C(=O)N[C@@H](C)C(=O)N(C)CC(=O)N(C)[C@@H](CC(C)C)C(=O)N[C@@H](C(C)C)C(=O)N(C)[C@@H](CC(C)C)C(=O)N[C@@H](C)C(=O)N[C@H](C)C(=O)N(C)[C@@H](CC(C)C)C(=O)N(C)[C@@H](CC(C)C)C(=O)N(C)[C@@H](C(C)C)C(=O)N1C', '1.4 ×10⁻⁶ cm/s'),
  ('C/C=C/C[C@@H](C)[C@@H](O)[C@H]1C(=O)N[C@@H](C(C)C)C(=O)N(C)CC(=O)N(C)[C@@H](CC(C)C)C(=O)N[C@@H](C(C)C)C(=O)N(C)[C@@H](CC(C)C)C(=O)N[C@@H](C)C(=O)N[C@H](C)C(=O)N(C)[C@@H](CC(C)C)C(=O)N(C)[C@@H](CC(C)C)C(=O)N(C)[C@@H](C(C)C)C(=O)N1C', '0.7 ×10⁻⁶ cm/s'),
  ('CC[C@@H]1NC(=O)[C@H](CC(C)C)N(C)C(=O)[C@H](CC)N(C)C(=O)[C@H](CC(C)C)N(C)C(=O)[C@H](CC(C)C)N(C)C(=O)[C@@H](C)NC(=O)[C@H](C)NC(=O)[C@H](CC(C)C)N(C)C(=O)[C@H](C(C)C)NC(=O)[C@H](CC(C)C)N(C)C(=O)CN(C)C1=O', '2.7 ×10⁻⁶ cm/s'),
  ('CC[C@@H]1NC(=O)[C@H](CC(C)C)N(C)C(=O)[C@H](C(C)C)N(C)C(=O)[C@H](CC(C)C)N(C)C(=O)[C@H](CC(C)C)N(C)C(=O)[C@@H](C)NC(=O)[C@H](C)NC(=O)[C@H](CC(C)C)N(C)C(=O)[C@H](C(C)C)NC(=O)[C@H](CC(C)C)N(C)C(=O)CN(C)C1=O', '1.8 ×10⁻⁶ cm/s');

* * *

- experimentalProtocol: 1,9-decadiene/aqueous buffer solution partition coefficient, log D of the compound in PBS at pH 7.4 by shake flask method
- Format: physicochemical
Where a SMILES comes first, the peptide text is derived from it. [ ]: non-standard residue; d: D form. NMeY = CN[C@@H](Cc1ccc(O)cc1)C(=O)O; NMeF = CN[C@@H](Cc1ccccc1)C(=O)O; dNMeF = CN[C@H](Cc1ccccc1)C(=O)O; NMeA = CN[C@@H](C)C(=O)O; Sar = CNCC(=O)O
logD hydrocarbon water overview
parameter: logD hydrocarbon water

INSERT INTO measurements (compound, parameter, value) VALUES
  ('C/C=C/C[C@@H](C)[C@H]1OC(=O)[C@H](C(C)C)N(C)C(=O)[C@H](CC(C)C)N(C)C(=O)[C@H](CC(C)C)N(C)C(=O)[C@@H](C)NC(=O)[C@H](C)NC(=O)[C@H](CC(C)C)N(C)C(=O)[C@H](C(C)C)NC(=O)[C@H](CC(C)C)N(C)C(=O)CN(C)C(=O)[C@H](CC)NC(=O)[C@H]1NC', 'logD hydrocarbon water', 2.61),
  ('CC(C)C[C@@H]1NC(=O)[C@H](C)NC(=O)[C@H](Cc2ccc(O)cc2)N(C)C(=O)[C@H](Cc2ccccc2)NC(=O)CN(C)C(=O)[C@@H]2CCCN2C(=O)[C@@H](Cc2ccccc2)N(C)C1=O (cyclo(AL[dNMeF]P[Sar]F[NMeY]))', 'logD hydrocarbon water', -2.44),
  ('CC[C@H](C)[C@@H]1NC(=O)[C@H](C)N(C)C(=O)[C@H](Cc2ccccc2)NC(=O)CN(C)C(=O)[C@@H]2CCCN2C(=O)[C@@H](Cc2ccccc2)N(C)C(=O)[C@H](CC(C)C)NC1=O (cyclo(F[NMeA]IL[dNMeF]P[Sar]))', 'logD hydrocarbon water', 0.71),
  ('CC[C@H](C)[C@@H]1NC(=O)[C@H](Cc2ccccc2)N(C)C(=O)[C@H](Cc2ccccc2)NC(=O)CN(C)C(=O)[C@@H]2CCCN2C(=O)[C@@H](Cc2ccccc2)N(C)C(=O)[C@H](CC(C)C)NC1=O (cyclo(F[NMeF]IL[dNMeF]P[Sar]))', 'logD hydrocarbon water', 2.13),
  ('C/C=C/C[C@@H](C)[C@@H](O)[C@H]1C(=O)N[C@@H](C(C)C)C(=O)N(C)CC(=O)N(C)[C@@H](CC(C)C)C(=O)N[C@@H](C(C)C)C(=O)N(C)[C@@H](CC(C)C)C(=O)N[C@@H](C)C(=O)N[C@H](C)C(=O)N(C)[C@@H](CC(C)C)C(=O)N(C)[C@@H](CC(C)C)C(=O)N(C)[C@@H](C(C)C)C(=O)N1C', 'logD hydrocarbon water', 3.86),
  ('CC(C)C[C@@H]1NC(=O)[C@H](C(C)C)NC(=O)[C@H](Cc2ccc(O)cc2)N(C)C(=O)[C@H](Cc2ccccc2)NC(=O)CN(C)C(=O)[C@@H]2CCCN2C(=O)[C@@H](Cc2ccccc2)N(C)C1=O [Cordyheptapeptide C]', 'logD hydrocarbon water', -0.43);

* * *

- experimentalProtocol: Apparent permeability in human Caco2 cells
- Assay type: ADME, cell-based
- conditions: Caco-2
parameter: Papp

INSERT INTO assay_data (structuresmiles, parameter, value) VALUES
  ('CC[C@H]1OC(=O)[C@H](C)[C@@H](O[C@H]2C[C@@](C)(OC)[C@@H](O)[C@H](C)O2)[C@H](C)[C@@H](O[C@@H]2O[C@H](C)C[C@H](N(C)C)[C@H]2O)[C@](C)(O)C[C@@H](C)C(=O)[C@H](C)[C@@H](O)[C@]1(C)O', 'Papp', '1 to 3 ×10⁻⁶ cm/s'),
  ('CC[C@H]1OC(=O)[C@H](C)[C@@H](O[C@H]2C[C@@](C)(OC)[C@@H](O)[C@H](C)O2)[C@H](C)[C@@H](O[C@@H]2O[C@H](C)C[C@H](N(C)C)[C@H]2O)[C@](C)(O)C[C@@H](C)/C(=N/OCOCCOC)[C@H](C)[C@@H](O)[C@]1(C)O', 'Papp', '> 10 ×10⁻⁶ cm/s'),
  ('CC[C@H]1OC(=O)[C@H](C)[C@@H](O[C@H]2C[C@@](C)(OC)[C@@H](O)[C@H](C)O2)[C@H](C)[C@@H](O[C@@H]2O[C@H](C)C[C@H](N(C)C)[C@H]2O)[C@](C)(O)C[C@@H](C)CN(C)[C@H](C)[C@@H](O)[C@]1(C)O', 'Papp', '1 to 3 ×10⁻⁶ cm/s'),
  ('CC[C@H]1OC(=O)[C@H](C)[C@@H](O[C@H]2C[C@@](C)(OC)[C@@H](O)[C@H](C)O2)[C@H](C)[C@@H](O[C@@H]2O[C@H](C)C[C@H](N(C)C)[C@H]2O)[C@](C)(OC)C[C@@H](C)C(=O)[C@H](C)[C@@H](O)[C@]1(C)O', 'Papp', '> 10 ×10⁻⁶ cm/s');

Provenance of the data: ChEMBL document CHEMBL4325887
